target: DNA-binding transcriptional activator DevR/DosR (Mycobacterium tuberculosis); experiment: Inhibition of Mycobacterium tuberculosis phosphorylated DevR binding to fdxA promoter DNA after 10 mins by EMSA; settings: read-out: IC50 (converted)
Sequence (P9WMF9 whole entry): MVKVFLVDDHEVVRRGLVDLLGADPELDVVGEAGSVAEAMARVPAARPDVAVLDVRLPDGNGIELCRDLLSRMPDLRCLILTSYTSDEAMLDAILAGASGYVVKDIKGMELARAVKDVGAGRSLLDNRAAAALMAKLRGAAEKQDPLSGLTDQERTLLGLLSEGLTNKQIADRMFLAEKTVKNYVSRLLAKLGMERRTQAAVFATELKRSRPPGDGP
outcomeMeasure: IC50 (µM)
Return type: number; implicit unit µM.

COc1cc(NC(=O)CCc2ccc(OCc3ccc(Cl)cc3)c(OC)c2)c(OC)cc1Cl	295
C=CCc1cc(/C=C2\NC(=O)N(c3ccccc3F)C2=O)cc(OCC)c1O	259

Shift focus to the following entry.
In: Using the record for COc1cc(NC(=O)c2cc3ccccc3o2)ccc1NC(=O)c1ccccc1Cl , state its measured IC50.
Out: 200
